Provenance of the data: ChEMBL document CHEMBL1201862

Could you please report measured GI50 for the items listed next?
Tested on: COLO 205
Experiment: NCI tumour cell line growth inhibition, 48 h
Calls of active or inactive are those of the source. No stated cut-off is given here; in the data, active = GI50 up to about 1.1 µM and inactive = higher.

Look up GI50: O[C@]12c3ccccc3C1CCCCC2N1CCOCC1 (stereo partly specified)
> 100 µM (inactive)

Same for COc1ccc(C(Cc2ccccc2)C2NC(=S)NC2=O)cc1 (stereo unspecified)
> 25 µM (inactive)

Same for "O=C(Cn1nnc(-c2ccccc2)n1)N/N=C/c1cn(Cc2ccc(Cl)cc2Cl)c2ccccc12"
> 100 µM (inactive)

Same for N#C[BH2-][n+]1cn(C2CC(O)C(COP(=O)(O)OC3CC(n4cnc5c(=O)[nH]c(N)nc54)OC3CO)O2)c2nc(N)[nH]c(=O)c21 (stereo unspecified)
> 100 µM (inactive)

Same for "CCOC(=O)CCCc1cc(O)c2c(C)c3[nH]c4ccc(Cl)cc4c3c(C)c2n1"
41.8 µM (inactive)

Same for "CCOP(=O)(Nc1ccc(-c2ccc(N)cc2)cc1)OCC"
> 100 µM (inactive)

Same for "NCC(=O)NC1(c2cc3ccccc3s2)CCCCC1"
17.9 µM (inactive)

Same for "Nc1c(S(=O)(=O)O)cc(S(=O)(=O)O)c2ccc(/N=N/c3ccccc3)c(O)c12"
> 100 µM (inactive)

Same for "Cc1ccc(S(=O)(=O)OC2=C/C(=N\c3onc(C)c3C)c3ccccc3C2=O)cc1"
86.5 µM (inactive)

Same for COC(=O)C12CCC(C(=O)OC)(Cc3c(c4ccccc4n3S(=O)(=O)c3ccccc3)C1)C2=O (stereo unspecified)
> 100 µM (inactive)

Same for "CC(C)=CCC[C@@H](C)C1=C(O)C(=O)C(C)=C(Nc2ccccc2Br)C1=O"
15.9 µM (inactive)

Same for "O=C(c1ccccc1)c1c(C(F)(F)F)[n+]([O-])c2ccccc2[n+]1[O-]"
1.18 µM (inactive)

Same for "O=C1NC2=NN=C(c3ccc(Br)cc3)CN2NC12c1ccccc1-c1ccccc12"
> 100 µM (inactive)

Same for "CCCCc1ccc(Nc2nc(N)c3[nH]cnc3n2)cc1"
18.3 µM (inactive)

Same for "COc1ccc(C=C(c2ccc(OCc3ccccc3)cc2)c2ccc(OCc3ccccc3)cc2)cc1"
> 100 µM (inactive)

Same for "CC(C)(C)N(Cc1ccc2c(c1)OCO2)C(=O)/C=C\Sc1ccccc1"
45.1 µM (inactive)

Same for NCCN1C(=O)c2cc(Cl)c(Cl)cc2C1(O)c1ccc(Cl)cc1 (stereo unspecified)
1.65 µM (inactive)

Same for "O=C(CCl)Nc1ccc(-c2nc3ccccc3s2)cc1"
2.07 µM (inactive)

Same for C=C1CCCCCCCCCCC12SCCC2CCCCSC (stereo unspecified)
19 µM (inactive)

Same for O=C(O)CC(NC(=O)CP(=O)(O)O)C(=O)O (stereo unspecified)
558 µM (inactive)

Same for "COc1ccc(Nc2nc3cc(C(F)(F)F)ccc3nc2-c2ccccc2)cc1OC"
29.3 µM (inactive)

Same for "Cc1c(C(=O)C/C(=N/NC(=O)c2ccccc2)C(=O)Nc2ccc(Cl)cc2)[n+]([O-])c2ccccc2[n+]1[O-]"
> 100 µM (inactive)

Same for "CC(C)(CCCCC(C)(C)C1NC(=O)N1)C1NC(=O)N1"
> 10 µM (inactive)

Same for CC(NNC(=O)c1ccncc1)c1ccc(F)cc1 (stereo unspecified)
> 100 µM (inactive)

Same for "O=c1c(C(c2ccc(/C=C/c3ccccc3)cc2)c2c(O)oc3cc(O)ccc3c2=O)c(O)oc2cc(O)ccc12"
> 100 µM (inactive)

Same for "O=C(O)CCNCCCCNCCC(=O)O"
> 100 µM (inactive)

Same for "CCCCc1ccc(Nc2ncc3ncn(COCCO)c3n2)cc1"
36.1 µM (inactive)

Same for "CCCc1c(-c2ccccc2)[nH]c2ccccc2c1=O"
> 100 µM (inactive)

Same for "COc1ccc(Nc2nc(NNC(=O)Cc3ccccc3)nc(NNC(=O)c3ccncc3)n2)cc1"
> 10 µM (inactive)

Same for "Cc1ccc2c3c1O[C@H]1c4[nH]c5ccccc5c4C[C@@]4(O)[C@@H](C2)N(C)CC[C@]314"
14.4 µM (inactive)

Same for "CCOC(=O)c1c(SCCN2CCOCC2)n(-c2ccccc2)c(=S)n(-c2ccccc2)c1=O"
> 100 µM (inactive)

Same for "NC1c2ccccc2Nc2ccccc21"
2.21 µM (inactive)

Same for CC(C)[Si]1(C(C)C)OCC2OC(n3ccc(=O)[nH]c3=O)C([Se]c3ccccc3)C2O[Si](C(C)C)(C(C)C)O1 (stereo unspecified)
4.86 µM (inactive)

Same for O=C1CCCCC12CCC/C2=N\O (stereo unspecified)
> 100 µM (inactive)

Same for "Oc1ccccc1CNCc1ccccc1O"
34 µM (inactive)

Same for "c1ccc2cc(CNCCOCCOCCNCc3ccc4ccccc4c3)ccc2c1"
1.48 µM (inactive)

Same for CC[C@@H]1CN2CCC1C[C@@H]2C(O)c1ccnc2ccc(OCCN3CCN(CCOc4ccc5nccc(C(O)[C@@H]6C[C@@H]7CCN6C[C@@H]7CC)c5c4)CC3)cc12 (stereo partly specified)
14.7 µM (inactive)

Same for "Cc1cc(S(=O)(=O)Nc2nc3ccccc3[nH]2)c(S)cc1Cl"
82.2 µM (inactive)

Same for "C#CC(O)(c1nc2ccccc2s1)c1nc2ccccc2s1"
17.7 µM (inactive)

Same for "O=C1c2ccccc2C(=O)C1C(c1ccc(F)cc1)C1C(=O)c2ccccc2C1=O"
> 100 µM (inactive)

Same for "O=C(Nc1ccccc1)N1C(c2ccccc2)=N[C@@H](c2ccccc2)[C@@H]1c1ccccc1"
14.6 µM (inactive)
